tested on: OVCAR-8 ovarian; assay: NCI-60 one-dose screen, 48 h (100 = growth as untreated, 0 = no growth, -100 = all killed); conditions: 10 µM unless noted
The panel holds about 83,000 compounds, 20% with a hit somewhere; the sample as a whole holds those more often.
observed_property: growth (%)

compound	value_reported
NNC(=O)CNc1ccc2ccccc2c1	108
CCCC(=O)NNc1[nH]c(-c2ccc(OC)cc2)cc1C(=O)OCC	110
CCCCCCCCCCN1CC2CCCCC2C1 (stereo not drawn)	94

###

system: OVCAR-3 ovarian; test: NCI-60 one-dose screen, 48 h (100 = growth as untreated, 0 = no growth, -100 = all killed); conditions: 10 µM unless noted
The panel holds about 83,000 compounds, 20% with a hit somewhere; the sample as a whole holds those more often.
observed_property: growth (%)

compound	value_reported
CCCCCCCCC(=O)Nc1ccc(O)cc1	102
CSc1nc(N)n2nccc2n1	106
CNc1nc2ncn(C)c2c(=O)[nH]1	113
Cc1[nH]n(C(=S)Nc2nc3cc(Cl)c(F)cc3s2)c(=O)c1N=Nc1ccc(F)c(Cl)c1	98.2
O=C(NC1CCN(Cc2ccccc2)CC1)c1cc(-c2cccnc2)nc2ccc(Cl)cc12	94.4
COc1cc(NC(=O)CSc2nc3ccc(Cl)cc3c(=O)n2-c2ccc(F)cc2)cc(OC)c1OC	80.6
CC(Br)c1nc2ccccc2cc1C(N)=O (stereo not given)	105
N#Cc1ccc(OCc2nc(N)nc(N)c2-c2ccc(Cl)c(Cl)c2)cc1	45.8
CCCNC(=O)Oc1ccc(/C(=C(/C)Cc2ccc(OC)cc2)c2ccc(OCCN3CCCCC3)cc2)cc1	88.6
C/C(=N\Nc1ccc(Cl)cn1)c1ccccn1	20.5
CC([C@H]1CCC2C3CCC4C[C@@H](N)CC[C@]4(C)C3CC[C@@]21C)N(C)C (stereo not given in full)	71.5
CC(=O)N1CCN(CCNC(=O)n2cc(-c3ccncc3)c(-c3cc(O)cc(Cl)c3)n2)CC1	102
Oc1ccc2ccccc2c1/C=N\Nc1ccccn1	5.04
COC(=O)c1cc(O)c2cc3c(cc2c1-c1cc(OC)c(OC)c(OC)c1)OCO3	8.41
CCOC(=O)CCCCCCCCC(=O)OCC	106
